# measurementTarget: T1, cynomolgus monkey GPRC5D (cynomolgus monkey)
# T1 construct: whole, on cells; HEK293T-cynoGPRC5D cells; also called cynoGPRC5D
# assayNotes: FACS, HEK293T-cynoGPRC5D cells
Item-by-item account of pEC50
Reminder that pEC50 means the negative base-10 logarithm of the concentration expressed in mol/L.

{"columns": ["binder", "pEC50"],
 "data": [
  ["ch90G6H3 (antibody, V domains shown) VH: QAYLQQSGAELVRSGASVKMSCKASGYTFTSYIMHWVKQTPGQGLEWIGYIYPGNGGTNYNQKFKDKATLSADTSSSTAYMQINSLTSEDSAVYFCARWGLRQGFAYWGQGTLVSVSA VL: DIVMTQSQKFMSTSVGDRVSVTCKASQNVGGNVAWYQQKPGQSPKALIYSTSYRNSGVPDRFTGSGSGTDFTLTISNVQSEDLAEYFCQQYNSYPFTFGSGTKLEIR", 7.87]
]}

# context switch: different binder, same pEC50
pEC50 reported for this binder ch26E2H6 (antibody, V domains shown) VH: EVQLVESGGDLVKPGGSLKLSCAASGFTFSSYGMSWVRQTPDKRLEWVATISSGGSYTYYPDSVKGRFTISRDNAKNTLYLQMSSLKSEDTAMYYCARHATDYWGQGTTLTVSS VL: QIVLTQSPAIMSASPGEKVTMTCSASSSVSYMHWYQQKSGTSPKRWIYDTSKLASGVPARFSGSGSGTSYSLTISSMEAEDAATYYCQQWSSNPLTFGAGTKLELK : 7.39

The measured values listed here are drawn from patent US20250368734A1.
